assay_remarks: Metabolic stability in human liver microsomes after 1 hr at 37 degC
Assay type: ADME, Microsome
particulars: read-out: Stability

{"line_notation": "COc1ccc(-c2ccc(CO[C@@H]3COc4nc([N+](=O)[O-])cn4C3)cc2)cn1", "remaining at 1 h": "> 50%"}

====

assay_remarks: Thermodynamic solubility in aqueous buffer at pH 7.4 at 20 degC by HPLC
Format: physicochemical
Decision: solubility thermodynamic >= 0.3 µg/mL yields fulfilled, all other cases yield not fulfilled.

{"line_notation": "O=[N+]([O-])c1cn2c(n1)OC[C@@H](OCc1ccc(-c3ccc(C(F)(F)F)cn3)cc1)C2", "assigned_label": "fulfilled"}
{"line_notation": "O=[N+]([O-])c1cn2c(n1)OC[C@@H](OCc1ccc(-c3ccc(OC(F)(F)F)c(Cl)c3)nc1)C2", "assigned_label": "not fulfilled"}
{"line_notation": "O=[N+]([O-])c1cn2c(n1)OC[C@@H](OCc1ccc(-c3ccc(C(F)(F)F)nc3)cc1)C2", "assigned_label": "not fulfilled"}
{"line_notation": "O=[N+]([O-])c1cn2c(n1)OC[C@@H](OCc1cnc(-c3ccc(OC(F)(F)F)cc3)cn1)C2", "assigned_label": "fulfilled"}
{"line_notation": "O=[N+]([O-])c1cn2c(n1)OC[C@@H](OCc1ccc(-c3ccc(OC(F)(F)F)cc3)nn1)C2", "assigned_label": "fulfilled"}
{"line_notation": "O=[N+]([O-])c1cn2c(n1)OC[C@@H](OCc1ccc(-c3ccc(OC(F)(F)F)c(F)c3)cn1)C2", "assigned_label": "fulfilled"}
{"line_notation": "O=[N+]([O-])c1cn2c(n1)OC[C@@H](OCc1ccc(-c3ccc(OC(F)(F)F)c(F)c3)nc1)C2", "assigned_label": "fulfilled"}
{"line_notation": "O=[N+]([O-])c1cn2c(n1)OC[C@@H](OCc1ccc(-c3ccc(OC(F)(F)F)cc3)cc1)C2", "assigned_label": "not fulfilled"}

====

assay_remarks: AUClast in Sprague-Dawley rat at 5 mg/kg, iv administered as single dose
Format: ADME, organism-based
Design: time 0 - last, dose 5 mg/kg, route intravenous
particulars: plasma

{"line_notation": "O=[N+]([O-])c1cn2c(n1)OC[C@@H](OCc1cnc(-c3ccc(OC(F)(F)F)cc3)cn1)C2", "AUC(0-t) [ng·h/mL]": 16300}
{"line_notation": "O=[N+]([O-])c1cn2c(n1)OC[C@@H](OCc1ccc(-c3ccc(OC(F)(F)F)cc3)nc1)C2", "AUC(0-t) [ng·h/mL]": 12100}
{"line_notation": "O=[N+]([O-])c1cn2c(n1)OC[C@@H](OCc1ccc(-c3ccc(OC(F)(F)F)cc3)cn1)C2", "AUC(0-t) [ng·h/mL]": 35900}

====

assay_remarks: Ratio of AUC (0-infinity) in lung to AUC (0-infinity) in plasma of CD1 mouse at 40 mg/kg, po administered as single dose
Assay type: ADME, organism-based
Parameters: dose 40 mg/kg, route oral
// reported Kp for each item listed
recorded_endpoint: Kp

{"line_notation": "O=[N+]([O-])c1cn2c(n1)OC[C@@H](OCc1ccc(-c3ccc(C(F)(F)F)cn3)cc1)C2", "recorded_result": 3.4}
{"line_notation": "O=[N+]([O-])c1cn2c(n1)OC[C@@H](OCc1ccc(-c3ccc(OC(F)(F)F)c(F)c3)nc1)C2", "recorded_result": 1.4}
{"line_notation": "O=[N+]([O-])c1cn2c(n1)OC[C@@H](OCc1ccc(-c3ccc(C(F)(F)F)nc3)cc1)C2", "recorded_result": 1.9}
{"line_notation": "O=[N+]([O-])c1cn2c(n1)OC[C@@H](OCc1ccc(-c3ccc(OC(F)(F)F)c(F)c3)cn1)C2", "recorded_result": 1.1}

====

assay_remarks: physchem
particulars: water, pH 7
Description: Solubility of the compound in water at pH 7.0 by HPLC
Decision: solubility >= 3 µg/mL yields TRUE, all other cases yield FALSE.

{"line_notation": "O=[N+]([O-])c1cn2c(n1)OC[C@@H](OCc1ccc(-c3cncc(F)c3)cc1)C2", "assigned_label": "TRUE"}
{"line_notation": "O=[N+]([O-])c1cn2c(n1)OC[C@@H](OCc1ccc(-c3ccc(C(F)(F)F)nc3)cc1)C2", "assigned_label": "FALSE"}
{"line_notation": "O=[N+]([O-])c1cn2c(n1)OC[C@@H](OCc1cncc(-c3ccc(OC(F)(F)F)cc3)c1)C2", "assigned_label": "TRUE"}
{"line_notation": "COc1ccc(-c2ccc(CO[C@@H]3COc4nc([N+](=O)[O-])cn4C3)cn2)cc1F", "assigned_label": "FALSE"}
{"line_notation": "N#Cc1ccc(-c2ccc(CO[C@@H]3COc4nc([N+](=O)[O-])cn4C3)cn2)cc1", "assigned_label": "FALSE"}
{"line_notation": "N#Cc1ccc(-c2ccc(CO[C@@H]3COc4nc([N+](=O)[O-])cn4C3)nc2)cc1", "assigned_label": "TRUE"}
{"line_notation": "O=[N+]([O-])c1cn2c(n1)OC[C@@H](OCc1ccc(-c3ccc(OCc4ccccc4)nc3)cc1)C2", "assigned_label": "FALSE"}
{"line_notation": "O=[N+]([O-])c1cn2c(n1)OC[C@@H](OCc1cccc(-c3ccc(OC(F)F)cn3)c1)C2", "assigned_label": "TRUE"}
{"line_notation": "COc1ccc(-c2ccc(CO[C@@H]3COc4nc([N+](=O)[O-])cn4C3)cn2)cn1", "assigned_label": "TRUE"}

====

assay_remarks: Tmax in Sprague-Dawley rat at 5 mg/kg, iv administered as single dose
Type: ADME, organism-based
Parameters: dose 5 mg/kg, route intravenous
particulars: in vivo
// reported Tmax for each item listed

{"line_notation": "O=[N+]([O-])c1cn2c(n1)OC[C@@H](OCc1ccc(-c3ccc(OC(F)(F)F)cc3)cn1)C2", "Tmax / min": 4.98}
{"line_notation": "O=[N+]([O-])c1cn2c(n1)OC[C@@H](OCc1cnc(-c3ccc(OC(F)(F)F)cc3)cn1)C2", "Tmax / min": 10}
{"line_notation": "O=[N+]([O-])c1cn2c(n1)OC[C@@H](OCc1ccc(-c3ccc(OC(F)(F)F)cc3)nc1)C2", "Tmax / min": 4.98}

====

// reported remaining at 1 h for each item listed
assay_remarks: in vitro
particulars: human, liver microsomes
Description: Metabolic stability in human liver microsomes assessed as compound remaining after 1 hr

{"compound": "O=[N+]([O-])c1cn2c(n1)OC[C@@H](OCc1ccc(-c3ccc(C(F)(F)F)cn3)cc1)C2", "remaining at 1 h": "93%"}
{"compound": "O=[N+]([O-])c1cn2c(n1)OC[C@@H](OCc1ccc(-c3ccc(F)cn3)cc1)C2", "remaining at 1 h": "83%"}
{"compound": "O=[N+]([O-])c1cn2c(n1)OC[C@@H](OCc1cnc(-c3ccc(OC(F)(F)F)cc3)cn1)C2", "remaining at 1 h": "98%"}
{"compound": "O=[N+]([O-])c1cn2c(n1)OC[C@@H](OCc1ccc(-c3ccc(OC(F)(F)F)cc3)nc1)C2 [TBA-354]", "remaining at 1 h": "83%"}
{"compound": "O=[N+]([O-])c1cn2c(n1)OC[C@@H](OCc1ccc(-c3ccc(OC(F)(F)F)c(F)c3)cn1)C2", "remaining at 1 h": "97%"}
{"compound": "O=[N+]([O-])c1cn2c(n1)OC[C@@H](OCc1ccc(-c3ccc(OC(F)(F)F)c(F)c3)nc1)C2", "remaining at 1 h": "100%"}
{"compound": "O=[N+]([O-])c1cn2c(n1)OC[C@@H](OCc1ncc(-c3ccc(OC(F)(F)F)cc3)cn1)C2", "remaining at 1 h": "92%"}
{"compound": "O=[N+]([O-])c1cn2c(n1)OC[C@@H](OCc1ccc(-c3ccc(C(F)(F)F)nc3)cc1)C2", "remaining at 1 h": "86%"}
{"compound": "O=[N+]([O-])c1cn2c(n1)OC[C@@H](OCc1ccc(-c3ccc(OC(F)(F)F)c(Cl)c3)nc1)C2", "remaining at 1 h": "87%"}
{"compound": "O=[N+]([O-])c1cn2c(n1)OC[C@@H](OCc1ccnc(-c3ccc(OC(F)(F)F)cc3)c1)C2", "remaining at 1 h": "54%"}
{"compound": "O=[N+]([O-])c1cn2c(n1)OC[C@@H](OCc1ccc(-c3ccc(F)cc3)nc1)C2", "remaining at 1 h": "88%"}
{"compound": "O=[N+]([O-])c1cn2c(n1)OC[C@@H](OCc1ccc(-c3ccc(OC(F)F)nc3)cc1)C2", "remaining at 1 h": "95%"}
{"compound": "O=[N+]([O-])c1cn2c(n1)OC[C@@H](OCc1ccc(-c3ccc(F)nc3)cc1)C2", "remaining at 1 h": "88%"}
{"compound": "O=[N+]([O-])c1cn2c(n1)OC[C@@H](OCc1ccc(-c3ncc(C(F)(F)F)cc3Cl)cc1)C2", "remaining at 1 h": "86%"}
